Values were extracted from patent US20240101959A1.

target_system: T1, hu-IL-2Rγc subunit (human, UniProt P31785 23-262, limits assumed)
T1 sequence (looked up): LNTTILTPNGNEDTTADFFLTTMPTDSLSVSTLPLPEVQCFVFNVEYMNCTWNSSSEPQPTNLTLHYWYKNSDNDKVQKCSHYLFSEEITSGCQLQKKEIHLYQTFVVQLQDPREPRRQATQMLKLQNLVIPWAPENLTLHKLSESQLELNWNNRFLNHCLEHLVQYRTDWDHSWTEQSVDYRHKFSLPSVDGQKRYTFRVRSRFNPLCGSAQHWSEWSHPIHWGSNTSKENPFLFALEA
pIC50: −log10 of the molar value.
Entries annotated with measured pIC50

Please review the entries below; each comes with its answer.
RLLNSVVECLDWEGVELCWQ [SEQ ID NO 659]: > 4.00
LALRKEVVCQEYYGVELCWI [SEQ ID NO 641]: > 4.00
GGVGIECEEWAGVELCWLGG [SEQ ID NO 739]: > 4.00
VVCQEWEGVELCWC [SEQ ID NO 661]: > 4.00
GGRTGVECQDWHGVELCWPVWEGG [SEQ ID NO 742]: > 4.00
GGVVCQDWEGVSLCWQGG [SEQ ID NO 746]: > 4.00

Lab note: next binder to report on.
Complete the entry with pIC50 for KPVVVCEEWQGVELCWLEIQ [SEQ ID NO 692]
> 4.00
